protein stability index by entry:
Tested on: Saccharomyces cerevisiae
Assay: protein stability index of tFT-peptide fusion (C-terminal peptide) (PSI (0-1 scale)); higher = more stable (slower turnover)
Conditions: genetic background: cdc53-1; temperature: 37 C
Lab note: record just the number, no unit beside it.

VFIVVEFRLSLY | 0.243

Documented protein stability index of GSLLNLSLRWLV : 0.729

Documented protein stability index of FGVLFFVFVFVC : 0.243

Documented protein stability index of CPPPPPSLLLLC : 0.676

Documented protein stability index of VRFLSLNVLFFC : 0.625

Documented protein stability index of PDCRPPLVRCLL : 0.902

Documented protein stability index of LRSVLGWGLFLA : 0.494

Documented protein stability index of VTFWISLVYVLV : 0.264

====

Tested on: Saccharomyces cerevisiae
Experiment: protein stability index of tFT-peptide fusion (C-terminal peptide) (PSI (0-1 scale)); higher = more stable (slower turnover)
Conditions: genetic background: wild type; temperature: 30 C
protein stability index by entry:
Lab note: record just the number, no unit beside it.

Documented protein stability index of SAPPPSPAPSPY : 0.677

Documented protein stability index of GRRFIPFSSFIR : 0.79

====

protein stability index by entry:
System: Saccharomyces cerevisiae
Assay: protein stability index of tFT-peptide fusion (C-terminal peptide) (PSI (0-1 scale)); higher = more stable (slower turnover)
Details: genetic background: das1 deletion; temperature: 30 C

Guide cases for protein stability index, answers given:
ILSLYFISDRTG [YBR200W-A C-terminal 12 aa] | 0.725
LDKIKTDDTYTS [FYV7 C-terminal 12 aa] | 0.7
AIFTAFTQVVLI [TOH1 C-terminal 12 aa] | 0.486
KENLANNEILDN [YKL063C C-terminal 12 aa] | 0.683
ELKAHNINVVDK [PNC1 C-terminal 12 aa] | 0.662
WSNNDDMEQNPW [YPR089W C-terminal 12 aa] | 0.724
MFNASSDIFQRN [YML083C C-terminal 12 aa] | 0.703
YVKNLLTRFFTR [FRT1 C-terminal 12 aa] | 0.718
LQEPDRDNDDSG [NTC20 C-terminal 12 aa] | 0.701
SKNDSPKKKGWF [MAS2 C-terminal 12 aa] | 0.694

Documented protein stability index of ENFSSALQSPIF [YDL152W C-terminal 12 aa] : 0.733

Documented protein stability index of HWLQLKPGQPMY [MF(ALPHA)1 C-terminal 12 aa] : 0.718

====

Tested on: Saccharomyces cerevisiae
Experiment: protein stability index of tFT-peptide fusion (C-terminal peptide) (PSI (0-1 scale)); higher = more stable (slower turnover)
Conditions: genetic background: das1 deletion; temperature: 37 C
Please mark fulfilled if the recorded protein stability index is equal to or greater than 0.5, and not fulfilled if it falls below.

LLLVPLLAFSAS | fulfilled
LLCSLGFRFSLF | fulfilled
LAFMYFVCPRLA | fulfilled

Here is the next item to consider.
Please indicate if the recorded protein stability index for WVFVVWFVFVVG meets or exceeds 0.5. not fulfilled

====

Tested on: Saccharomyces cerevisiae
Assay: protein stability index of tFT-peptide fusion (C-terminal peptide) (PSI (0-1 scale)); higher = more stable (slower turnover)
Settings: genetic background: cdc53-1; temperature: 37 C
Please mark T if the recorded protein stability index is equal to or greater than 0.5, and F if it falls below.

LCIYNFGWWFCV | T

Please indicate if the recorded protein stability index for LPPSPPAPLSRL meets or exceeds 0.5. T

Please indicate if the recorded protein stability index for LVVIYPLLSSPV meets or exceeds 0.5. T

====

protein stability index by entry:
Test system: Saccharomyces cerevisiae
Experiment: protein stability index of tFT-peptide fusion (C-terminal peptide) (PSI (0-1 scale)); higher = more stable (slower turnover)
Settings: genetic background: wild type; temperature: 30 C
Lab note: record just the number, no unit beside it.

PPTIHPSPAAPH | 0.623
DVVPYLGYYFFC | 0.578
GSGLVTRTSLDY | 0.726

Entry SLTLPAPPLSPC : protein stability index on Saccharomyces cerevisiae = 0.712

Entry WFRCCGVLGCLG : protein stability index on Saccharomyces cerevisiae = 0.657

Entry GMVFGLAWCGCL : protein stability index on Saccharomyces cerevisiae = 0.619

Entry PCPAPRPPSPSA : protein stability index on Saccharomyces cerevisiae = 0.435

Entry PLHPPPPPPPPT : protein stability index on Saccharomyces cerevisiae = 0.69

Entry EVSGRCRRPDDQ : protein stability index on Saccharomyces cerevisiae = 0.679

Entry FFVISVVLCLLV : protein stability index on Saccharomyces cerevisiae = 0.43

Entry YLNVVSSFYTCS : protein stability index on Saccharomyces cerevisiae = 0.684

Entry HGLLLRDRPLPT : protein stability index on Saccharomyces cerevisiae = 0.665

Entry YGVEWGAESNLY : protein stability index on Saccharomyces cerevisiae = 0.802

====

Tested on: Saccharomyces cerevisiae
Assay: protein stability index of tFT-peptide fusion (C-terminal peptide) (PSI (0-1 scale)); higher = more stable (slower turnover)
Conditions: genetic background: das1 deletion; temperature: 30 C
QUANTITY NAME: protein stability index
Lab note: record just the number, no unit beside it.

NGMWQKPEPGVS [YIL067C C-terminal 12 aa] | 0.691
PSENFATKAKLP [YDR187C C-terminal 12 aa] | 0.751
IYALSIKHPKEI [CPT1 C-terminal 12 aa] | 0.713
DLEFEEQREPKL [NVJ2 C-terminal 12 aa] | 0.719
HQKARSSYCCIQ [XDJ1 C-terminal 12 aa] | 0.759
LPGINSIFKNIF [TOD6 C-terminal 12 aa] | 0.774
RKSKRVLPVSKF [PET309 C-terminal 12 aa] | 0.783
EETLEFDPTLLV [YBL062W C-terminal 12 aa] | 0.707
IESTLSNKLSIN [YCR013C C-terminal 12 aa] | 0.696
ECPGGCPGVAFI [RTC1 C-terminal 12 aa] | 0.708

Documented protein stability index of EFEENPNPTVEN [HSP42 C-terminal 12 aa] : 0.731

Documented protein stability index of NSLTQKYGTNNV [AAD15 C-terminal 12 aa] : 0.698

====

Tested on: Saccharomyces cerevisiae
Assay: protein stability index of tFT-peptide fusion (C-terminal peptide) (PSI (0-1 scale)); higher = more stable (slower turnover)
Settings: genetic background: wild type; temperature: 30 C
Please mark TRUE if the recorded protein stability index is equal to or greater than 0.7, and FALSE if it falls below.

These solved cases illustrate the format of a correct answer.
ANFECSSWKFAS [EFM5 C-terminal 12 aa] | FALSE
AMDYAISIENIV [RPN12 C-terminal 12 aa] | FALSE
NASIFTVLSYCS [YEL020C-B C-terminal 12 aa] | FALSE

Please indicate if the recorded protein stability index for KPSSNNSINIKV [AHK1 C-terminal 12 aa] meets or exceeds 0.7. TRUE

Please indicate if the recorded protein stability index for HIREDYLRQFGN [KTR5 C-terminal 12 aa] meets or exceeds 0.7. FALSE

Please indicate if the recorded protein stability index for MLNQQQQQQQQS [NRD1 C-terminal 12 aa] meets or exceeds 0.7. TRUE

Please indicate if the recorded protein stability index for QEPVIDPGTVVV [MRPL3 C-terminal 12 aa] meets or exceeds 0.7. FALSE

====

Tested on: Saccharomyces cerevisiae
Assay: protein stability index of tFT-peptide fusion (C-terminal peptide) (PSI (0-1 scale)); higher = more stable (slower turnover)
Conditions: genetic background: wild type; temperature: 30 C
protein stability index by entry:
Lab note: record just the number, no unit beside it.

Guide cases for protein stability index, answers given:
HKSGKLLLPVYI [ECO1 C-terminal 12 aa] | 0.619
YKDVQDAIRDSL [URA6 C-terminal 12 aa] | 0.685
NSAFSSASVTKP [YFR057W C-terminal 12 aa] | 0.682

Documented protein stability index of NTKHYNDTLLKQ [PHO11 C-terminal 12 aa] : 0.66

Documented protein stability index of HNILDRCLKRLS [RKM3 C-terminal 12 aa] : 0.716

Documented protein stability index of SVESLMTQQDVE [BIO4 C-terminal 12 aa] : 0.694

====

Tested on: Saccharomyces cerevisiae
Assay: protein stability index of tFT-peptide fusion (C-terminal peptide) (PSI (0-1 scale)); higher = more stable (slower turnover)
Conditions: genetic background: das1 deletion; temperature: 37 C
QUANTITY NAME: protein stability index
Lab note: record just the number, no unit beside it.

Guide cases for protein stability index, answers given:
CSVPLGVFAIVV | 0.514
LLLIGISFLIFY | 0.385

Documented protein stability index of EFWWPFDRRGVI : 0.83

Documented protein stability index of RLVGVRWEVCNL : 0.864
